Reference source for all entries: patent US8026218

- system: T1, rat µ opioid receptor (rat, UniProt P33535 1-398)
- T1 construct: whole, on cells; membrane preparations of the transfected cells were used; also called rMOR; MOR
- T1 sequence (P33535 whole entry): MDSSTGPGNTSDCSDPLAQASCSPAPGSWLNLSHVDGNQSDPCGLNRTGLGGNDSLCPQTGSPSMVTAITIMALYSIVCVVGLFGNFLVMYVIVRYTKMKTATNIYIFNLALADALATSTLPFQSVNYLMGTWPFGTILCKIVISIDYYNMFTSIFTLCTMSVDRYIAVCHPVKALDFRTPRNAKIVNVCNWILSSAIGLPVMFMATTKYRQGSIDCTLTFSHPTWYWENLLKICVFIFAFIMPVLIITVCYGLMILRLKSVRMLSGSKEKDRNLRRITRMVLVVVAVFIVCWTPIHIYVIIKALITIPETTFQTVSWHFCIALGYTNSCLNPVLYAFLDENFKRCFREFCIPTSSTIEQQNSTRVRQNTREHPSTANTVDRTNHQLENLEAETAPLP
- methodDescription: competition vs [3H]DAMGO, rMOR cell membranes
Square brackets hold non-standard residues; d marks the D form. Primed or numbered codes have the meaning given here. Ends that are not written are not given here. O‑Bzl(CF3)2″ = C-terminal Bzl(CF3)2 ester; Aib = CC(C)(N)C(=O)O; βAla = NCCC(=O)O
outcomeMeasure: Ki (nM)
Dear colleague, please return just the value in nM, with no unit written.

Example entries and their recorded answers appear below.
Y[dA]GF[Aib]W-{O‑Bzl(CF3)2″} (also called NP41) [Tyr-DAla-Gly-Phe-Aib-Trp-O-Bzl(CF3)2] ... 13.3
Y[dA]GFXW-{O‑Bzl(CF3)2} (not fully specified (residue 5); printed as Tyr-DAla-Gly-Phe-γ-Abu-Trp-O-Bzl(CF3)2, also called NP34) [Tyr-DAla-Gly-Phe-γ-Abu-Trp-O-Bzl(CF3)2] ... 2.2
Y[dA]GF[βAla]W-{O‑Bzl(CF3)2} (also called NP32) [Tyr-DAla-Gly-Phe-β-Ala-Trp-O-Bzl(CF3)2] ... 11.2
Y[dA]GFAW-{O‑Bzl(CF3)2} (also called NP31) [Tyr-DAla-Gly-Phe-Ala-Trp-O-Bzl(CF3)2] ... 3.6

Turning to the following binder.
# Ki (binder: Y[dA]GFLW-{O‑Bzl(CF3)2} (also called NP37) [Tyr-DAla-Gly-Phe-Leu-Trp-O-Bzl(CF3)2] ) is 23.3
